target: ATP6V1C1 (Homo sapiens); construct: human wild-type ATP6V1C1, N-terminal 6xHis tag, modified pET30a, expressed in E. coli BL21 (DE3); assay: ITC with purified recombinant protein; supported by CETSA/ITDRF (half-maximal destabilization […]) and TPP; format: binding
Sequence (P21283 2-382): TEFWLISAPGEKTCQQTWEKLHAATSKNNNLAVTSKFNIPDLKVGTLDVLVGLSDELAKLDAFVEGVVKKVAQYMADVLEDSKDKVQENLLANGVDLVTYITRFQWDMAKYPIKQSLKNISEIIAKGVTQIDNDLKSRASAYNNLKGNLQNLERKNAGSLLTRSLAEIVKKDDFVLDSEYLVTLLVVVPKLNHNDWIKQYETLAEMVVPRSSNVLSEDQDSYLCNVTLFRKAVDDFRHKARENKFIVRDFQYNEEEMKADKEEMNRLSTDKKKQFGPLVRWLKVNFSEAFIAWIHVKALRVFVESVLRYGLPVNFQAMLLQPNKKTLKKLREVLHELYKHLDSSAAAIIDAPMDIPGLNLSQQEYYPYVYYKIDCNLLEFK

{"columns": ["Molecule Smiles", "Target Or System", "Result Unit", "Kd"],
 "data": [
  ["Cc1c([C@H](C)[C@@H]2NC[C@@H](C)C[C@H]2O)ccc2c1C[C@H]1[C@H]2CC=C2C[C@@H](O)CC[C@@]21C", "ATP6V1C1 (Homo sapiens)", "µM", 1.17]
]}
